Where these numbers come from: patent US20220298145A1

tested.target: BRAF (V600E) (Homo sapiens, UniProt P15056, V600E)
Sequence (P15056 whole entry V600E): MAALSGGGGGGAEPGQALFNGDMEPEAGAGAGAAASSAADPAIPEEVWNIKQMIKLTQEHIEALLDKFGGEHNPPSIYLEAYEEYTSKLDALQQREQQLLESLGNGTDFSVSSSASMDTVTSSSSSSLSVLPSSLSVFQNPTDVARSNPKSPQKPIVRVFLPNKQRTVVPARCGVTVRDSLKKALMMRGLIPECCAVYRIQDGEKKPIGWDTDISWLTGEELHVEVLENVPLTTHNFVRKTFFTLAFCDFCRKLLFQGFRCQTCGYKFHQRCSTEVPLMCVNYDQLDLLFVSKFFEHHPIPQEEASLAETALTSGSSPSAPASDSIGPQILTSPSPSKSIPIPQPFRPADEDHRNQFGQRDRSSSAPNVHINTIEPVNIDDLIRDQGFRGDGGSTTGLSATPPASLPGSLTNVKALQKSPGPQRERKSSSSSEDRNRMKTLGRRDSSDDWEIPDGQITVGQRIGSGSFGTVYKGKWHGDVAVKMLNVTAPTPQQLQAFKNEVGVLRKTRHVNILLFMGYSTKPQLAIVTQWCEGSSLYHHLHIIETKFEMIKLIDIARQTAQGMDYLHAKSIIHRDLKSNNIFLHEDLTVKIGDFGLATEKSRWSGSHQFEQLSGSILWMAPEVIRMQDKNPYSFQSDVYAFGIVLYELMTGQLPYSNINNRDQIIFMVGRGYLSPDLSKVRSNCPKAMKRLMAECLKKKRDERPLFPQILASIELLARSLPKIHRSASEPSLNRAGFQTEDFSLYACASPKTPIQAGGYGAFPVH
assay.notes: Kd for RAF kinases: BRAF (V600E)
Assay type: binding
pKd: −log10 of the molar value.
quantity.kind: pKd

[
  {
    "structure.smiles.string": "Cn1cnc2ccc(Oc3c(F)ccc(NS(=O)(=O)C4CCCC4)c3C#N)cc2c1=O",
    "readout.value": 8.72
  },
  {
    "structure.smiles.string": "CN(C)S(=O)(=O)Nc1ccc(F)c(Oc2ccc3ncn(C)c(=O)c3c2)c1C#N",
    "readout.value": 8.37
  },
  {
    "structure.smiles.string": "CCN(C)S(=O)(=O)Nc1ccc(Cl)c(Oc2ccc3ncn(C)c(=O)c3c2)c1C#N",
    "readout.value": 7.43
  },
  {
    "structure.smiles.string": "CCN(C)S(=O)(=O)Nc1cccc(Oc2ccc3ncn(C)c(=O)c3c2)c1C#N",
    "readout.value": 7.49
  },
  {
    "structure.smiles.string": "Cn1cnc2ccc(Oc3cccc(NS(=O)(=O)N4CC[C@@H](F)C4)c3C#N)cc2c1=O",
    "readout.value": 8.35
  },
  {
    "structure.smiles.string": "Cn1cnc2ccc(Oc3c(Cl)ccc(NS(=O)(=O)N4CC[C@@H](F)C4)c3C#N)cc2c1=O",
    "readout.value": 8.20
  },
  {
    "structure.smiles.string": "CCN(C)S(=O)(=O)Nc1ccc(Cl)c(Nc2ccc3ncn(C)c(=O)c3c2)c1C#N",
    "readout.value": 8.00
  },
  {
    "structure.smiles.string": "Cn1cnc2ccc(Oc3c(Cl)ccc(NS(=O)(=O)N4CCCC4)c3C#N)cc2c1=O",
    "readout.value": 8.34
  }
]

====

tested.target: BRAF (V600E) (Homo sapiens, UniProt P15056, V600E)
assay.notes: Kd for RAF kinases: BRAF (V600E)
Assay type: binding
condition.parameters: read-out: Kd BRAF (V600E)
pKd: −log10 of the molar value.

[
  {
    "compound": "Cn1cnc2ccc(Oc3cccc(NS(=O)(=O)C4CCCCC4)c3C#N)cc2c1=O [Example 9]",
    "pKd": 8.40
  },
  {
    "compound": "Cn1cnc2ccc(Oc3c(F)ccc(NS(=O)(=O)N4CCCC4)c3C#N)cc2c1=O [Example 15]",
    "pKd": 9.05
  },
  {
    "compound": "CCN(C)S(=O)(=O)Nc1ccc(F)c(Oc2ccc3ncn(C)c(=O)c3c2)c1C#N [Example 1]",
    "pKd": 8.47
  },
  {
    "compound": "Cn1cnc2ccc(Nc3c(Cl)ccc(NS(=O)(=O)N4CCCC4)c3C#N)cc2c1=O [Example 14]",
    "pKd": 9.15
  },
  {
    "compound": "CCN(C)S(=O)(=O)Nc1cccc(Nc2ccc3ncn(C)c(=O)c3c2)c1C#N [Example 11]",
    "pKd": 7.58
  }
]

====

tested.target: BRAF (V600E) (Homo sapiens, UniProt P15056, V600E)
assay.notes: Kd for RAF kinases: BRAF (V600E)
Assay type: binding
pKd: −log10 of the molar value.
quantity.kind: pKd

[
  {
    "compound": "Cn1cnc2ccc(Nc3cccc(NS(=O)(=O)N4CC[C@@H](F)C4)c3C#N)cc2c1=O",
    "readout.value": 8.12
  },
  {
    "compound": "CCC(C)S(=O)(=O)Nc1cccc(Oc2ccc3ncn(C)c(=O)c3c2)c1C#N (racemic)",
    "readout.value": 7.84
  },
  {
    "compound": "Cn1cnc2ccc(Oc3cccc(NS(=O)(=O)N4CCCC4)c3C#N)cc2c1=O",
    "readout.value": 8.59
  },
  {
    "compound": "Cn1cnc2ccc(Oc3cccc(NS(=O)(=O)C4CCCC4)c3C#N)cc2c1=O",
    "readout.value": 8.15
  }
]
